biological target: RARβ (Homo sapiens)
pKi: −log10 of the molar value.

# compound, pKi
rows = [
    ("CC(/C=C/C=C(c1cc2c(cc1O)C(C)(C)CCC2(C)C)C(F)(F)F)=C\\C(=O)O (stereo in doubt)", 5.36),
]

----------
Readings of pEC50 for the listed molecules
target: RARβ (Homo sapiens); assay: chimeric receptor transactivation assay, RARβ
pEC50: −log10 of the molar value.

# molecule, readout-qualifier, pEC50
data = [
    ("CCOc1cc2c(cc1\\C(=C/C=C/C(C)=C/C(=O)O)C(F)(F)F)C(C)(C)CCC2(C)C", "=", 7.17),
    ("COc1cc2c(cc1C(=C/C=C/C(C)=C/C(=O)O)C(F)(F)F)C(C)(C)CCC2(C)C (stereo in doubt)", "=", 6.82),
    ("CCCOc1cc2c(cc1C(=C/C=C/C(C)=C/C(=O)O)C(F)(F)F)C(C)(C)CCC2(C)C (stereo in doubt)", "=", 7.27),
    ("CC(/C=C/C=C(c1cc2c(cc1O)C(C)(C)CCC2(C)C)C(F)(F)F)=C\\C(=O)O (stereo in doubt)", "<", 6.30),
]

----------
Biological target: RXRβ (Homo sapiens)
Sequence (P28702 1-533): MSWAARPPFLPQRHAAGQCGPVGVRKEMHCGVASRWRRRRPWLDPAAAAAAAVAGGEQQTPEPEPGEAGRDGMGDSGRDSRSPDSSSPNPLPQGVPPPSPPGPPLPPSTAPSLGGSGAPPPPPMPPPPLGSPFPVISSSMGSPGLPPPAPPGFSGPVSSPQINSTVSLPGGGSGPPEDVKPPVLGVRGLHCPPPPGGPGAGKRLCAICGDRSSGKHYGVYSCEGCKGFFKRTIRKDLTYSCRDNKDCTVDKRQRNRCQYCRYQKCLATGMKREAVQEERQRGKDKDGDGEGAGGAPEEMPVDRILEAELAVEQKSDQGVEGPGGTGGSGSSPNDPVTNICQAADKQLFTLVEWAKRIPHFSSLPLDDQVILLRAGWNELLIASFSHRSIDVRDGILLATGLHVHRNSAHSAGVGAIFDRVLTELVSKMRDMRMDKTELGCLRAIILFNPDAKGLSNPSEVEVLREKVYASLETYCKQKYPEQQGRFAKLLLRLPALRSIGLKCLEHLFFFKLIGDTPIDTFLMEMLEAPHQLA
observed-property: Ki (µM)

# compound, meas-value
records = [
    ("CC(/C=C/C=C(c1cc2c(cc1O)C(C)(C)CCC2(C)C)C(F)(F)F)=C\\C(=O)O (stereo in doubt)", 2.6),
    ("CCCOc1cc2c(cc1C(=C/C=C/C(C)=C/C(=O)O)C(F)(F)F)C(C)(C)CCC2(C)C (stereo in doubt)", 0.115),
]

----------
target: RXRα (Homo sapiens, UniProt P19793); assay: holoreceptor transactivation assay, RXRα
observed-property: EC50 (nM)

# molecule, meas-value
rows = [
    ("CCOc1cc2c(cc1\\C(=C/C=C/C(C)=C/C(=O)O)C(F)(F)F)C(C)(C)CCC2(C)C", 10),
    ("COc1cc2c(cc1C(=C/C=C/C(C)=C/C(=O)O)C(F)(F)F)C(C)(C)CCC2(C)C (stereo in doubt)", 0.6),
    ("CC(/C=C/C=C(c1cc2c(cc1O)C(C)(C)CCC2(C)C)C(F)(F)F)=C\\C(=O)O (stereo in doubt)", 9),
]

----------
Molecular target: RARβ (Homo sapiens, UniProt P10826)
Sequence (P10826 183-417 limits assumed): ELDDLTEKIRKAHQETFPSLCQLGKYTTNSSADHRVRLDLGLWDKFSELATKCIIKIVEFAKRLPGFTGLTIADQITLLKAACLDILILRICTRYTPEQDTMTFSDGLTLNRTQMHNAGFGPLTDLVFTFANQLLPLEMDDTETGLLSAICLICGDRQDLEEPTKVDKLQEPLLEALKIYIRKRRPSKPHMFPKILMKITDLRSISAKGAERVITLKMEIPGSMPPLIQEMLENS
Assay: chimeric receptor transactivation assay, RARβ
Settings: value in parentheses; relative to standard compound of U.S. Pat. No. 6,114,533
observed-property: RAR β transactivation efficacy as a percentage compared to the standard compound (%)

# compound, system-name, u, meas-value
records = [
    ("CCOc1cc2c(cc1\\C(=C/C=C/C(C)=C/C(=O)O)C(F)(F)F)C(C)(C)CCC2(C)C [Compound 6]", "RARβ (Homo sapiens, UniProt P10826)", "%", 15),
    ("COc1cc2c(cc1C(=C/C=C/C(C)=C/C(=O)O)C(F)(F)F)C(C)(C)CCC2(C)C (stereo in doubt) [Compound 5]", "RARβ (Homo sapiens, UniProt P10826)", "%", 32),
    ("CCCOc1cc2c(cc1C(=C/C=C/C(C)=C/C(=O)O)C(F)(F)F)C(C)(C)CCC2(C)C (stereo in doubt) [Compound 7]", "RARβ (Homo sapiens, UniProt P10826)", "%", 9),
]

----------
Target: UniProt:P19793
Sequence (P19793 1-462): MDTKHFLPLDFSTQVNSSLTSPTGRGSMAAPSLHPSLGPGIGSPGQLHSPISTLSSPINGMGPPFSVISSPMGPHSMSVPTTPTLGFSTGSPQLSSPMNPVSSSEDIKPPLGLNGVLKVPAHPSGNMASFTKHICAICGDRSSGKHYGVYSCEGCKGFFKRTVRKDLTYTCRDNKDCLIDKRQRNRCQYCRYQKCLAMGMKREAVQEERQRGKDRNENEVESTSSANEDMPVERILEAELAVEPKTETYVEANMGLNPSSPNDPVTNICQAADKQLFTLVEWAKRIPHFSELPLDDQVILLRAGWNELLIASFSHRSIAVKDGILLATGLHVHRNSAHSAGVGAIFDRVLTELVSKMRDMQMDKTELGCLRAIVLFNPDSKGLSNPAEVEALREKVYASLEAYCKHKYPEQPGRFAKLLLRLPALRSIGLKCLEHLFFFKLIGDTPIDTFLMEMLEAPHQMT

# compound, system-name, Ki [µM]
data = [
    ("CCOc1cc2c(cc1\\C(=C/C=C/C(C)=C/C(=O)O)C(F)(F)F)C(C)(C)CCC2(C)C", "UniProt:P19793", 0.014),
    ("CC(/C=C/C=C(c1cc2c(cc1O)C(C)(C)CCC2(C)C)C(F)(F)F)=C\\C(=O)O (stereo in doubt)", "UniProt:P19793", 0.471),
]
